From: PubChem BioAssay AID460

molecular target: Procathepsin L (Homo sapiens) (UniProt P07711); assay: blockers of CTSL protease activity – biochemical (AID 460); settings: purified cathepsin L, fluorogenic substrate, fluorescence; hits give high values;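 tested at 10 µM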;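 further: 0% = enzyme with no compound and 100% = no enzyme blank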
Sequence (P07711 114-288 limits assumed): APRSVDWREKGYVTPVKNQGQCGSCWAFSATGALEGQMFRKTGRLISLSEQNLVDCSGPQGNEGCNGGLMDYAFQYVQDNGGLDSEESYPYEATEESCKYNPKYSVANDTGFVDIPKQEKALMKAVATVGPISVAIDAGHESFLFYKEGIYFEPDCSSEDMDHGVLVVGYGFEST
Sequence (P07711 292-333 limits assumed): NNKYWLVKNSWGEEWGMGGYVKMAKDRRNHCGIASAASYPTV
The campaign covered roughly 58,000 compounds. About 100 (0.17%) were called active. What follows is part of a selection rich in actives, with near analogues and random picks from the rest.
Would you mind telling me the reported inhibition of each entry?
One number for each entry, in %.

| compound | tested.target | reported |
| --- | --- | --- |
| CCN(CC)CCCNC(=O)c1cc(-c2cccc(Cl)c2)on1 | Procathepsin L (Homo sapiens) (UniProt P07711) | 10.3 |

# batch: return inhibition for each of the 6 compounds below
1. COc1ccc2[nH]c(=O)c(CN(CC3CCCO3)C(=O)Nc3ccccc3)cc2c1 (stereo not drawn)
2. CCOC(=O)C1(C(F)(F)F)N=C(N(C)C)OC(N(C)C)=N1
3. C[C@H](NC(=O)OC(C)(C)C)c1nnc(SCC(N)=O)o1
4. COc1ccc(CN2CN(C(C)C)CSC2=S)cc1
5. COc1ccc(OC)c2c(N)c(C#N)c(C(F)(F)C(F)(F)F)nc12
6. C=CCc1cccc2cc(C(=O)OCC)c(=O)oc12

*A*
[-6.3, -0.15, 9.7, 17, -8.11, 5.84]

Please report inhibition for every entry that follows.
1. O=C(CS(=O)(=O)c1cn(Cc2cccc(F)c2)c2ccccc12)N1CCCCC1
2. CCOC(=O)c1ccc(COC(=O)c2cc(=O)[nH]c3ccccc23)o1
3. Cc1cc(C(F)(F)F)nn1-c1nc(-c2ccco2)cc(C(F)(F)F)n1
4. O=C(NCC1CCCO1)C(C(=O)c1ccccc1)n1cc(Cl)ccc1=O (stereo not drawn)
5. Cn1c(/C(C#N)=C2/CCCCCN2)nc2ccccc21
6. Cc1ccc(S(=O)(=O)C2(S(=O)(=O)c3ccc(C)cc3)CCCC2)cc1

*A*
1. 17.3
2. 2.07
3. 1.46
4. -10.2
5. -2.23
6. -3.77

State the recorded inhibition for every item in the following list.
1. CCC(=O)Nc1nc(OC)cc(OC)n1
2. Cc1cccc(N2C(=O)SC(N(CC(=O)O)c3cccc(C)c3)C2=O)c1 (stereo not drawn)
3. CCN(Cc1ccccc1)C(=O)CSc1nc(C)cc2c1C(=O)OC2
4. Cc1ccc(S(=O)(=O)n2nc(OC(=O)C(C)(C)C)cc2N)cc1

*A*
[-4.97, 18.4, 5.38, 9.62]

For each listed entry, give its inhibition.
1. CCn1c(-c2cc(OC)ccc2OC)csc1=Nc1c(C)n(C)n(-c2ccccc2)c1=O
2. O=c1cc(Cn2nnc(-c3ccc(Cl)cc3)n2)nc2sccn12
3. Cc1cc2cc(CNC(=O)c3ccc(S(=O)(=O)N4CCOCC4)cc3)ccc2[nH]1
4. CCOC(=O)C(CCOc1cccc(CC)c1)C(=O)OCC
5. COc1ccc(OC)c(S(=O)(=O)N(C)CC(=O)N2CCN(c3ccccc3)CC2)c1
6. CCOC(=O)c1[nH]c2ccc(C)cc2c1N=C(C)N(C)C

*A*
1: -2.42; 2: 18.2; 3: 4.06; 4: 20.3; 5: -0.18; 6: 0.54

----------
molecular target: Procathepsin L (Homo sapiens); assay: blockers of CTSL protease activity – biochemical (AID 460); conditions: purified cathepsin L, fluorogenic substrate, fluorescence; hits give high values;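 tested at 10 µM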;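 further: 0% = enzyme with no compound and 100% = no enzyme blank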
About 100 (0.17%) of roughly 58,000 compounds were called active. Many of the other results were omitted from the sample, so actives are more common in it than they were.
recorded.endpoint: inhibition (%)
One number for each entry, in %.

Recorded inhibition, per entry:
| molecule | recorded.endpoint | measurement.unit | reported |
| --- | --- | --- | --- |
| CCOC(=O)C(CC)Sc1ncnc2c1nnn2-c1ccc(F)cc1 (stereo unspecified) | inhibition | % | 7.22 |
| CC(=O)N1C(=O)C2(Nc3ccccc3N2)c2ccccc21 | inhibition | % | 1.65 |
| N#CC(C(=O)c1ccc(S(=O)(=O)N2CCCCCC2)cc1)c1nc2ccccc2[nH]1 (stereo unspecified) | inhibition | % | -6.58 |

Could I get inhibition for every one of these entries?
1. O=C(O)C1CC=CCC1C(=O)NCCc1ccccc1 (stereo unspecified)
2. CCn1c2c(c3ccc(OC)cc31)CCCC2=O
3. CCCC(=O)C1=C(N(C)c2ccccc2)CC(C)(C)C(C(=O)OC)C1=O (stereo unspecified)
4. CC(C)c1ccc(NS(=O)(=O)c2cn(C)c(=O)n(C)c2=O)cc1
5. Cc1ccc(C2(c3ccc(C)cc3)NC(=O)N(Cc3c(C)noc3C)C2=O)cc1
6. c1ccc(-c2noc(-c3cccs3)n2)nc1
7. CCOc1ccc(C(=O)Nc2ccncc2)cc1

*A*
-8.83
-5.8
-1.31
12.5
13.3
0.38
21.4

*Q* Kindly state the measured inhibition obtained for Cc1ccc(-c2cc(C(F)(F)F)n3nc(C(=O)N4CCCC4)cc3n2)cc1 with Procathepsin L (Homo sapiens).
*A* -2.27

----------
molecular target: Procathepsin L (Homo sapiens); assay: blockers of CTSL protease activity – biochemical (AID 460); settings: purified cathepsin L, fluorogenic substrate, fluorescence; hits give high values;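 tested at 10 µM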;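 further: 0% = enzyme with no compound and 100% = no enzyme blank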
Among all 58,000 compounds or so, about 100 (0.17%) were called active. This excerpt belongs to a sample that is enriched for actives.
recorded.endpoint: inhibition (%)
Numbers only, in %.

Answered cases to consult:
| molecule | inhibition, % |
| --- | --- |
| CCOC(=O)C1CCc2nc3ccccc3c(=O)n21 (stereo not drawn) | 17.4 |
| N#CNC1=NCN(CCc2ccccc2)CN1 | 17.9 |
| COC(=O)c1cc(S(=O)(=O)NC2CCN(Cc3ccccc3)CC2)cn1C | -7.14 |
| Cc1nc2ccc(NC(=O)N3CCC(c4ccccc4)C3)cc2nc1C (stereo not drawn) | -130 |
| COc1ccc2c(c1OC)C(=O)N(c1ncn[nH]1)C2 | 2.08 |

Can you give me inhibition for all of these, one by one?
1. Cc1ccc(C)c(N(CC(=O)NCc2ccco2)C(=O)CCC(=O)Nc2ccccn2)c1
2. COc1ccccc1CNC(=O)C1CCN(S(C)(=O)=O)CC1
3. CCCn1c(=NC(C)=O)c(C(=O)OCC)cc2c(=O)n3ccccc3nc21

*A*
1: -0.88; 2: 2.28; 3: -149

----------
What inhibition was measured for each of the following?
biological target: Procathepsin L (Homo sapiens) (UniProt P07711); test: blockers of CTSL protease activity – biochemical (AID 460); details: purified cathepsin L, fluorogenic substrate, fluorescence; hits give high values;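 tested at 10 µM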;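 further: 0% = enzyme with no compound and 100% = no enzyme blank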
Among all 58,000 compounds or so, about 100 (0.17%) were called active. The sample holds actives, similar compounds and a random draw of the others, so the mix is not that of the screen. Where a SMILES comes first, the peptide text is derived from it. The star is where a group is joined. Bz = O=C(c1ccccc1)*
Give bare numbers, in %.

Example entries and their recorded answers appear below.
| compound | tested.target | inhibition [%] |
| --- | --- | --- |
| C=CCN1C(=O)C(O)(CC(=O)c2ccc(Cl)cc2)c2ccccc21 (stereo not given) | Procathepsin L (Homo sapiens) (UniProt P07711) | 0.03 |
| Cc1c(C(=O)N2CC(C)OC(C)C2)sc2nc(-c3ccccc3)cn12 (stereo not given) | Procathepsin L (Homo sapiens) (UniProt P07711) | 23 |
| CN(C(=O)COc1ccccc1)c1nnc(-c2ccncc2)s1 | Procathepsin L (Homo sapiens) (UniProt P07711) | -26.7 |
| COc1ccccc1N1CCN(C(=O)c2cc(-c3ccc(Cl)c(Cl)c3)on2)CC1 | Procathepsin L (Homo sapiens) (UniProt P07711) | 1.59 |
| Cn1c(=O)c2cn(-c3cccc4ccccc34)cc2n(C)c1=O | Procathepsin L (Homo sapiens) (UniProt P07711) | 6.9 |
| CSCCC(NS(=O)(=O)/C=C/c1ccccc1)C(=O)N1CCC(C)CC1 (stereo not given) | Procathepsin L (Homo sapiens) (UniProt P07711) | 7.86 |
| CCOc1cccc(-c2nn3c(-c4ccccn4)nnc3s2)c1 | Procathepsin L (Homo sapiens) (UniProt P07711) | 20.7 |
| O=C(NC(Cc1ccccc1)C(=O)N1CCCC1C(=O)O)c1ccccc1 (stereo not drawn) (Bz-Phe-Pro-OH; configuration not given here) | Procathepsin L (Homo sapiens) (UniProt P07711) | 17.6 |
| CCOCCOC(=O)C1=C(C)N(C)C(=O)NC1c1ccccc1F (stereo not given) | Procathepsin L (Homo sapiens) (UniProt P07711) | -0.79 |

Here's the next entry for you.
*Q* Entry CN(C(=O)c1ccno1)c1nnc(-c2cccnc2)s1 : reported inhibition = ?
*A* -4.38

----------
Kindly supply the reported inhibition values for the records listed here.
biological target: Procathepsin L (Homo sapiens); assay: blockers of CTSL protease activity – biochemical (AID 460); settings: purified cathepsin L, fluorogenic substrate, fluorescence; hits give high values;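 tested at 10 µM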;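 further: 0% = enzyme with no compound and 100% = no enzyme blank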
In all, about 58,000 compounds went through this assay and about 100 (0.17%) were called active. Only a selection was taken, and actives are over-represented in it overall.

See these solved cases before continuing.
| compound | recorded.endpoint | reported |
| --- | --- | --- |
| Cc1ccc(OCC(O)CN2CCN(CC(O)COc3ccc(C)cc3Cl)CC2)c(Cl)c1 (stereo unspecified) | inhibition | 24.6% (inactive) |
| Cc1cnc(C(=O)OCC(=O)Nc2ccc(Cl)cc2Cl)cn1 | inhibition | -0.6% (inactive) |
| CCOc1cccc(=O)c2c(C)n(CC3CCCO3)c(C)c12 (stereo unspecified) | inhibition | -0.25% (inactive) |
| Nc1ccc(SCCN2C(=O)c3ccccc3C2=O)cc1 | inhibition | 7.88% (inactive) |
| COc1ccc(-c2nc(CS(=O)CC(=O)NCc3ccccn3)c(C)o2)cc1 (stereo unspecified) | inhibition | 32.3% (inactive) |

Give measured inhibition for every item shown.
1. C=CCn1c(COc2ccccc2F)nnc1SCC(=O)N1CC(=O)Nc2ccccc21
2. CCn1c(CSc2nncn2-c2ccc(OC)cc2)nc2cc(S(=O)(=O)N(C)C)ccc21

*A*
2.58% (inactive)
15% (inactive)

Report inhibition for every entry below.
1. OC(COc1cccc2ccccc12)CN1CCN(c2ccccn2)CC1 (stereo unspecified)
2. N#Cc1c2c(c(N3CCN(CCO)CC3)n3c1nc1ccccc13)CCCC2
3. Cc1ccccc1-c1ccc(Nc2ccc(C(=O)N3CCOCC3)cc2)nn1
4. O=C(/C(=N\O)n1cncn1)c1ccc(Br)cc1Br

*A*
["7.74% (inactive)", "10.1% (inactive)", "-0.35% (inactive)", "5.57% (inactive)"]
